All figures here come from paper PMC12040169.

- Test Details: in vitro
- Applied Conditions: human, hela cells, % viability
Recorded Endpoint: viability at 28.5 h, 10 µM (%)
// note: answer is a bare numeric in %

Qu. // returns reported viability at 28.5 h, 10 µM for input O=C(O)CCN1CCCC2(CCN(C(=O)Cc3c[nH]c4ccccc34)C2)C1 (centres unmarked)
Ans. 114

Qu. Field request: viability at 28.5 h, 10 µM | item: Cc1cc(CNC(=O)C(C)n2cnc3ccccc32)on1 (centres unmarked)
Ans. 90.7

Qu. Report viability at 28.5 h, 10 µM for CCc1nc2c(OCCOc3ccc(F)cc3)cccn2c1N(C)C(=O)c1ccncc1 please.
Ans. 93.6

Qu. Could you share which viability at 28.5 h, 10 µM value was measured for NC(=O)c1ccc(NC(=O)N2CCCCC2CO)cc1 (centres unmarked) ?
Ans. 83

Qu. So what does the record say about viability at 28.5 h, 10 µM for CCN(CC)C(=O)CN(CCc1ccc(OC)c(OC)c1)C(=O)NCCCSC ?
Ans. 94.8

Qu. Suppose we examine the molecule Cc1nc2cc(C(=O)NC(C)c3ccccn3)ccc2n1C (centres unmarked) ; what viability at 28.5 h, 10 µM value has been reported?
Ans. 84.2

Qu. Any idea what viability at 28.5 h, 10 µM was measured for Cc1ccc(C(=O)C2=C(O)C(=O)N(Cc3cccnc3)C2c2cccc(Oc3ccccc3)c2)o1 (centres unmarked) ?
Ans. 96.3

Qu. What value of measured viability at 28.5 h, 10 µM is listed for COc1ccc([C@@]23CC[C@@H](NC(=O)c4ccc(SC(F)(F)F)cc4)C[C@@H]2N(C)CC3)cc1OC [CBK076654T] ?
Ans. 94.9

Qu. Requested read-out: viability at 28.5 h, 10 µM. Entry: O=C(c1cncnc1)N1CCC(F)CC1
Ans. 92.1

Qu. So what's the measured viability at 28.5 h, 10 µM for this one? CC(C)Nc1nccnc1Sc1ccccc1O
Ans. 92.1

Qu. Please give the measured viability at 28.5 h, 10 µM for this molecule: CCOCCn1c(=O)c2c(nc3oc(C(C)(C)C)cn32)n(C)c1=O
Ans. 103

Qu. What value of viability at 28.5 h, 10 µM has been recorded for this entry: COc1ccc(C(NC(=O)C2CCN(Cc3ccc4c(c3)OCO4)CC2)c2ccccc2C)cn1 (centres unmarked) [CBK081453T]
Ans. 121

Qu. Which measured viability at 28.5 h, 10 µM value corresponds to CCOC(=O)N1CCN(C(=O)COc2cccc3ccccc23)CC1 ?
Ans. 93

Qu. Fill in: viability at 28.5 h, 10 µM of CCOC(=O)N/N=C(/C)C(C)(C)C is ___
Ans. 105

Qu. What value of viability at 28.5 h, 10 µM has been reported for the following molecule? CCN(CC)CCNc1nc(-c2cccc(Cl)c2)nc2ccccc12 [CBK267265C]
Ans. 90.7

Qu. viability at 28.5 h, 10 µM for CC(=O)N1CCc2sccc2C1c1ccccc1NC(=O)c1ccco1 (centres unmarked) ?
Ans. 98.1

Qu. Query (molecule): COc1ccc(C(C)c2cc3c(cc2O)OCO3)c(F)c1 (centres unmarked) ; field requested: viability at 28.5 h, 10 µM
Ans. 98.1

Qu. Need viability at 28.5 h, 10 µM of CN1C(=O)COc2ccccc2C/C=C/C[C@H]2CNCC[C@H]21 , thanks.
Ans. 107

Qu. Please look up its viability at 28.5 h, 10 µM: O=C(NCc1ccccc1)c1cccc(NC(=O)c2cc(-c3ccccn3)nc3ccc(Cl)cc23)c1
Ans. 94

Qu. What value of measured viability at 28.5 h, 10 µM is listed for COC(=O)c1cccc(OCCn2c(=O)c(C#N)cn(C3CC3)c2=O)c1 ?
Ans. 98.6

* * *

- Test Details: in vitro
- Applied Conditions: human, hela cells, % viability
Assign labels as follows, please: yes for viability at 28.5 h, 10 µM below 90%; no for viability at 28.5 h, 10 µM equal to or exceeding 90%.

Qu. Confirm or reject: viability at 28.5 h, 10 µM of O=C(O)CCC(=O)N1CCN(C(=O)c2ccco2)CC1 [CBK286533] lies strictly below 90%
Ans. no

Qu. Criterion: viability at 28.5 h, 10 µM strictly below 90%. Is it met by Cc1nn(C)cc1-c1cncn1C(C)Cc1c(C)nn(C)c1C (stereo not shown) [CBK281786] ?
Ans. no

Qu. Lab log: compare recorded viability at 28.5 h, 10 µM with 90%; is it strictly lower for COC(=O)c1c(N=C(S)NN2CCN(C)CC2)sc2c1CCC(C)C2 (stereo not shown) [CBK267125] ?
Ans. yes

Qu. Decide: viability at 28.5 h, 10 µM of COc1cccc(NC(=O)c2cncc(-c3ccc(C(=O)N4CCOCC4)cc3)c2)c1 [CBK160213] strictly below 90%?
Ans. no

Qu. I'd appreciate it if you could check whether CC(C)(C)C(=O)CSc1nnc(-c2ccccc2)n1Cc1ccccc1 [CBK264960] has viability at 28.5 h, 10 µM smaller than 90%.
Ans. no

Qu. Would you kindly verify if viability at 28.5 h, 10 µM of Fc1ccc(CN2CCC(c3nnc4n3CCCCC4)CC2)cc1F [CBK283356] is strictly less than 90%?
Ans. yes

Qu. # TODO verify viability at 28.5 h, 10 µM < 90% strictly for this compound: O=[N+]([O-])c1cc([N+](=O)[O-])c2cccnc2c1NNc1nncc2ccccc12 [CBK110409]
Ans. yes

Qu. Please check: viability at 28.5 h, 10 µM for Nc1ncc(-c2cncnc2)nc1NCC1CCOCC1 [CBK063877] , strictly under 90% or not?
Ans. no

Qu. Confirm or reject: viability at 28.5 h, 10 µM of CC1=CC[C@H]2COC(CN3CCOC3C(C)C)[C@@H]1C2 (stereo partly shown) [CBK019189] lies strictly below 90%
Ans. no

Qu. Determine if O=S(=O)(c1ccccc1)c1nc(-c2ccco2)oc1NCc1cccnc1 [CBK287610] shows viability at 28.5 h, 10 µM strictly lower than 90%.
Ans. yes

Qu. Just wondering, is viability at 28.5 h, 10 µM of O=C(O)c1ccc(CNC(=O)c2ccc(Cl)c(S(=O)(=O)N3CCCC3)c2)cc1 [CBK297096] below 90%?
Ans. no

Qu. Please determine if O=C(Cn1cnc2c(cnn2-c2cccc(Cl)c2)c1=O)N1CCCCC1 [CBK287691] is below 90% in terms of viability at 28.5 h, 10 µM.
Ans. yes

Qu. Given Cc1cc(C)c2[nH]c(C)c(CC(=O)N(C)CCN(C)C)c2c1 [CBK282731] , is recorded viability at 28.5 h, 10 µM strictly lower than 90%?
Ans. yes

Qu. Identify whether the compound CC(C)CNC(=O)N1CCN(Cc2ccccc2)CC1 [CBK155644] records viability at 28.5 h, 10 µM below 90%.
Ans. no

* * *

- Test Details: in vitro
- Parameters: Viability of infected HeLa host cells, resazurin conversion, bulk resorufin fluorescence relative to DMSO
- Applied Conditions: human, hela cells; bulk resorufin, mean of 2
Recorded Endpoint: viability at 28.5 h, 5 µM (%)
Unit % implied. Number only.

Qu. Fill blank: measured viability at 28.5 h, 5 µM of the compound O=c1c2cnc3ccnn3c2ccn1C1CCCC1 [CBK288074] is ____.
Ans. 106

Qu. # lookup: viability at 28.5 h, 5 µM of OC(CN1CCN(Cc2ccccc2)CC1)Cn1c2ccc(Br)cc2c2cc(Br)ccc21 (centres unmarked) [CBK262203]
Ans. 90.4

Qu. Requested read-out: viability at 28.5 h, 5 µM. Entry: CCn1c2c(c3cc(S(=O)(=O)c4ccc(C(F)(F)F)cc4)ccc31)CCNCC2 [CBK018453C]
Ans. 89.4

Qu. Given Cc1ccc(OCC(O)CN2CCN(c3nc(-c4ccccc4)ns3)CC2)c([N+](=O)[O-])c1 (centres unmarked) [CBK074696] , state its recorded viability at 28.5 h, 5 µM.
Ans. 99.5

Qu. Give the measured viability at 28.5 h, 5 µM of O=C(N/N=C/c1c(O)ccc2ccccc12)c1ccc(CO)nc1 [CBK261375] .
Ans. 84.2
